EXPERIMENT: Luminescence Cell-Based Dose Response HTS to Identify Activators of Luciferase Translation or Activity in H4 […] Cells. [Related pubchem assays: 1829 (Project Summary), 1814 (Primary HTS)]
Format: functional
Activity calls are given as the source filed them.
Could you please report measured EC50 for the items listed next?

Look over these answered cases.
{"STRUCTURE STRING": "Cc1ccc(-c2csc(NC(=O)C3=COCCO3)n2)cc1C", "RESULT TYPE": "EC50", "RESULT": "< 0.1 µM (inconclusive)"}
{"STRUCTURE STRING": "[O-][n+]1onc2c1CCc1nnccc1-2", "RESULT TYPE": "EC50", "RESULT": "8.72 µM (active)"}
{"STRUCTURE STRING": "CC(C)c1ccc(/C=N/NC(=O)c2c(Cl)cnn2C)cc1", "RESULT TYPE": "EC50", "RESULT": "0.251 µM (active)"}
{"STRUCTURE STRING": "CC(=N)/C(C#N)=C(/O)CSc1nc2cc(C)ccc2[nH]1", "RESULT TYPE": "EC50", "RESULT": "< 0.1 µM (active)"}

// next entry
Quick check: EC50 of CCOC(=O)c1cnc(SCc2ccccc2)nc1N ?
< 0.1 µM (active)

====

STUDY SYSTEM: Methionyl-tRNA synthetase, putative (Trypanosoma brucei brucei)
Sequence (Q38C91 whole entry): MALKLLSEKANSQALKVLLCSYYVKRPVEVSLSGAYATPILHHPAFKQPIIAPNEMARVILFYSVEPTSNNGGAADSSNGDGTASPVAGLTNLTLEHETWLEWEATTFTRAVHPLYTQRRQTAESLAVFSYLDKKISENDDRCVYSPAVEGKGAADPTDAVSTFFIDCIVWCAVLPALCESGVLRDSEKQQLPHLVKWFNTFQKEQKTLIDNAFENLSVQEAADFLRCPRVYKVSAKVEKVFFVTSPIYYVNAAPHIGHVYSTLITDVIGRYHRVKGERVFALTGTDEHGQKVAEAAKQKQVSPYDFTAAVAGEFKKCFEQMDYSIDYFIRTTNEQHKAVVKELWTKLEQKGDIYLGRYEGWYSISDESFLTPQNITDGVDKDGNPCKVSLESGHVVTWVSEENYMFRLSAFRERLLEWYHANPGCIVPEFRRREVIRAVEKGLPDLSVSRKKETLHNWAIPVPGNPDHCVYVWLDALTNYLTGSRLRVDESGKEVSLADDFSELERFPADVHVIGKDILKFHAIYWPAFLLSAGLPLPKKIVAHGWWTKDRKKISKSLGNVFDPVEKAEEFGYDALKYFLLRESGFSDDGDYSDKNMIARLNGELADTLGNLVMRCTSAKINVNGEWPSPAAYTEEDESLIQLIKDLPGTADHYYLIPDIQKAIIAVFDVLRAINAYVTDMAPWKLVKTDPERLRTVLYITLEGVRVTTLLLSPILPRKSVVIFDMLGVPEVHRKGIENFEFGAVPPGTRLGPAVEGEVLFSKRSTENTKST
Format: functional, Trypanosoma brucei brucei strain 927/4 GUTat10.1
Active and inactive are the calls of the source.
Use one of these outcomes when replying: TRUE (active), FALSE (inactive)

Recorded results for 3 molecules are shown here.
{"MOLECULE": "O=S(=O)(Nc1cc2nc3ccccc3nc2n1Cc1ccccc1)c1ccc(Cl)cc1", "STUDY SYSTEM": "Methionyl-tRNA synthetase, putative (Trypanosoma brucei brucei)", "ASSIGNED CLASS": "TRUE"}
{"MOLECULE": "c1ccc2c3c([nH]c2c1)-c1n[nH]cc1CC3", "STUDY SYSTEM": "Methionyl-tRNA synthetase, putative (Trypanosoma brucei brucei)", "ASSIGNED CLASS": "FALSE"}
{"MOLECULE": "NS(=O)(=O)c1ccc(CCNC(=O)c2cc(-c3cc(Cl)ccc3O)n[nH]2)cc1", "STUDY SYSTEM": "Methionyl-tRNA synthetase, putative (Trypanosoma brucei brucei)", "ASSIGNED CLASS": "FALSE"}

GET /call?item= Cc1[nH]c2ccccc2c1/C=N/Nc1nc2ccccc2[nH]1 returns the recorded outcome of this test.
FALSE

Name the outcome recorded for CCN(CC)C(=O)C(=O)c1cn(CC(=O)NCc2ccc3c(c2)OCO3)c2ccccc12 in the assay.
TRUE

Look up the recorded call for OC(c1cc(Cl)cc(Cl)c1)c1nc(-c2ccccc2C(F)(F)F)c[nH]1 (stereo unspecified) in this test.
TRUE

====

Would you kindly list AC50 for each of these molecules?
EXPERIMENT: HepG2 cell cytotoxicity, dose response, cytotoxicity control for Shn3 inhibitor project, CellTiter-Glo, cherry-picked (AID 624134)
Assay type: functional, cell-based
The source made the active and inactive calls.

{"MOLECULE": "CC(=O)c1ccc(N2CCN(c3ccc(S(=O)(=O)NCCCN(C)C)cc3[N+](=O)[O-])CC2)cc1", "RESULT": "27.3 µM (active)"}
{"MOLECULE": "CCCOc1ccc(C(=O)C(CN2CCCC2)c2ccccc2)cc1 (centres undefined)", "RESULT": "22.6 µM (active)"}
{"MOLECULE": "COc1ccc(CCNc2c(C)c(C)nc3ncnn23)cc1", "RESULT": "25.6 µM (active)"}

--- query ---
Using the record for CC(C)CC(NC(=O)c1ccc(Cl)cc1)C(=O)OCC(=O)c1ccc2c(c1)NC(=O)CO2 (centres undefined) , report its AC50.
15.5 µM (active)

====

What AC50 was measured for each of the following?
STUDY SYSTEM: FAD-linked sulfhydryl oxidase ALR (Homo sapiens, UniProt P55789)
Sequence (P55789 whole entry): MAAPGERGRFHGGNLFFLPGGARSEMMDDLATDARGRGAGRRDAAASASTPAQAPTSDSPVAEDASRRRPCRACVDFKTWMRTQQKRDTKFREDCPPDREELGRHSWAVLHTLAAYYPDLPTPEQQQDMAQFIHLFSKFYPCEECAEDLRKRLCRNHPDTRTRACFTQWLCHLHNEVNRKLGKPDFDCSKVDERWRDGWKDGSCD
EXPERIMENT: inhibitors of human ALR sulfhydryl oxidase, dose response, biochemical, H2O2 detection, luminescence, cherry-pick (AID 493248)
Calls of active or inactive are those of the source.

Examples from the recorded data:
{"COMPOUND": "Sc1nnc(Cc2noc3ccccc23)n1-c1ccccc1", "AC50": "5.61 µM (active)"}
{"COMPOUND": "COc1ccc(OC)c(CNc2ccc3c(c2)nc(C)n3C)c1", "AC50": "5.53 µM (active)"}
{"COMPOUND": "COc1ccc(CSC2=NCCN2)cc1Cl", "AC50": "0.021 µM (active)"}
{"COMPOUND": "CCN(CCCNC(=O)CN(C)S(=O)(=O)c1cccc2nsnc12)c1cccc(C)c1", "AC50": "3.31 µM (active)"}
{"COMPOUND": "COc1ccc(/C=N/NC(=O)c2ccoc2C)cc1O", "AC50": "1.2 µM (active)"}
{"COMPOUND": "Nc1ccc(CCc2nc3ccccc3o2)cc1", "AC50": "1.16 µM (active)"}
{"COMPOUND": "O=C(O)c1ccc(N/N=C/c2cn(-c3ccccc3)nc2-c2cccs2)cc1", "AC50": "3.74 µM (active)"}
{"COMPOUND": "CSc1ccc(NC(=O)Nc2ccc(C(=O)NCC(=O)O)cc2)cc1", "AC50": "2.47 µM (active)"}

Batch request: AC50 for each of the following compounds.
1. COc1ccc(N2CCN(CC(=O)Nc3ccc(C)cc3)CC2)cc1
2. COc1ccc(Nc2cccc(Cl)c2)c(C(=O)O)c1
3. COc1ccccc1-c1nnc(S)n1Cc1ccccc1
4. CCCCN(CCCNc1[nH]cnc2ncnc1-2)c1ccccc1
5. COc1cc2c(cc1OC)CN(c1ccc([N+](=O)[O-])cc1C#N)CC2
6. Cc1ccc(-n2cccc2/C=C2/C(=N)N3C(=NC2=O)SN=C3S(C)(=O)=O)cc1

1: 3 µM (active); 2: 2.02 µM (active); 3: 3.09 µM (active); 4: 0.108 µM (active); 5: > 100 µM (inactive); 6: 0.598 µM (active)

Please look at the items below and tell me AC50 for each one, in order.
1. COc1cc(NC(=O)Nc2cccc(C(C)=O)c2)cc(OC)c1OC
2. COc1cc(/C=N/n2c(S)nnc2COc2ccccc2)cc(Br)c1O
3. COc1cc(OC)c2ccc(=O)oc2c1C(CCN1CCCC1)c1ccc(N(C)C)cc1 (configuration not stated)

["1.72 µM (active)", "2.65 µM (active)", "3.33 µM (active)"]

====

STUDY SYSTEM: Protein RecA (Mycobacterium tuberculosis, UniProt P9WHJ3)
EXPERIMENT: Fluorescence Cell-Free Homogeneous Dose Retest to Identify Inhibitors of RecA-Intein Splicing Activity. [Related pubchem assays (depositor defined):AID2097, AID2223, AID489010, AID492950]
Type: functional
Calls of active or inactive are those of the source.
Respond with a class label; see yes for active, no for inactive

{"COMPOUND": "O=[N+]([O-])c1ccc(Oc2cccc(F)c2)c2ccncc12", "STUDY SYSTEM": "Protein RecA (Mycobacterium tuberculosis, UniProt P9WHJ3)", "ASSIGNED CLASS": "yes"}
{"COMPOUND": "O=C(Nc1ccccc1Cl)/C(Cl)=C(\\Cl)[S+]([O-])c1ccccc1 (configuration not stated)", "STUDY SYSTEM": "Protein RecA (Mycobacterium tuberculosis, UniProt P9WHJ3)", "ASSIGNED CLASS": "yes"}
{"COMPOUND": "CCc1ccc(NC(=O)C(=O)N/N=C(\\C)CC(=O)Nc2ccccn2)cc1", "STUDY SYSTEM": "Protein RecA (Mycobacterium tuberculosis, UniProt P9WHJ3)", "ASSIGNED CLASS": "no"}

Please let me know the test result on file for Cc1ccc(C)c(S(=O)(=O)/N=C2\C=C(NS(=O)(=O)c3ccccc3)C(=O)c3ccccc32)c1 .
yes

For O=S(=O)(Nc1cc2nc3ccccc3nc2n1Cc1ccccc1)c1ccc(Cl)cc1 , what call appears in the results of this test?
yes

Write down the call the test reported for this compound. Item: Cc1n[nH]c(O)c1C(c1ccc(-c2cccc(Cl)c2)o1)c1c(C)n[nH]c1O
yes

What classification did O=C(NC1(O)C(=O)c2ccccc2C1=O)c1ccccc1 end up with in this test?
yes

In this assay, the call recorded for Cc1ccc(SC(=O)c2c(C)noc2-c2cc(C)on2)cc1 was what?
yes

Give the logged outcome of this assay for the following compound: Cc1[nH]c2ccccc2c1/C=N/Nc1nc2ccccc2[nH]1
yes
